# measurement-notes: in vivo
# condition-info: Sprague-Dawley, rat, CSF and plasma, iv, 2 (umol/kg)/hr
property-label: Kp uu at 4 h
Field format: numeric only.

*Q* Reported Kp uu at 4 h, compound CC(C)NCC(O)COc1cccc2ccccc12 (stereo not given) : ____
*A* 0.49

###

# measurement-notes: in vivo
# condition-info: Sprague-Dawley, rat, brain, iv, 2 (umol/kg)/hr
property-label: Kp at 4 h
// keep it numeric: no unit symbol after the value

Solved entries (count: 3):
compound: O=C1CN(/N=C/c2ccc([N+](=O)[O-])o2)C(=O)N1
reported: 0.008
--
compound: Nc1c2c(nc3ccccc13)CCCC2
reported: 9.56
--
compound: C=CCOc1ccccc1OCC(O)CNC(C)C (centres undefined)
reported: 1.06

Turning to the following compound.
*Q* Look up Kp at 4 h: `CC(C)Nc1cccnc1N1CCN(C(=O)c2cc3cc(NS(C)(=O)=O)ccc3[nH]2)CC1`
*A* 0.03
